biological target: T1, FcRn-p3 fusion protein (human, UniProt P55899 24-297; P61769 21-119); assay: phage ELISA pH6
T1 construct: baculovirus expressed; coated on ELISA wells; not shown: amino terminal part of bacteriophage p3 protein and CVDE protein
T1 sequence (P55899 24-297, chain 1 of 2): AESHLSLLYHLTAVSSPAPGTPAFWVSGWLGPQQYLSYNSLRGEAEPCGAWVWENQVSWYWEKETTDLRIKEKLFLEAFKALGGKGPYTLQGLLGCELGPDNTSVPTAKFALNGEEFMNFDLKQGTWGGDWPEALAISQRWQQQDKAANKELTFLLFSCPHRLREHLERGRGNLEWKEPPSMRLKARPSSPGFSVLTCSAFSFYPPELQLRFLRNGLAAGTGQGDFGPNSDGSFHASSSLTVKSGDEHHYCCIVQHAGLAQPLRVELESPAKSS
T1 sequence (P61769 21-119, chain 2 of 2): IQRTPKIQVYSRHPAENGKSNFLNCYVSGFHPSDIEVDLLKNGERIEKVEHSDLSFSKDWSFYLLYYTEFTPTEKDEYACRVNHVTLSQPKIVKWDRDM
Sorting guide: entries reporting Ratio/Fc-H beneath 3 fold go in the y pile, the rest go in the n pile.

| BINDER | CAT |
| --- | --- |
| C5A_12 (other, EU numbering) CPPCPAPELLGGPSVFLFPPKPKDTLMISRTPEVTCVVVDVSHEDPEVKFNWYVDGVEVHNAKTKPREEQYNSTYRVVSVLTVLHQDWLDGKEYKCKVSNKALPAPIEKTISKAKGQPREPQVYTLPPSRDELTKNEVSLTCLVKGFYPSDIAVEWESNGQPEKNYKTTPPVLDSDGSFFLYSKLTVDKSRWQQGNVFSCSVMHEALHYHYTQKSLSLSPGK | n |
| T7A_24 (other, EU numbering) CPPCPAPELLGGPSVFLFPPKPKDTLMISRTPEVTCVVEDVSHEDPEVKFNWYVDGVEVHNAKTKPREEQYNSTYRVVSVLTVLHQDWLNGKEYKCKVSNKALPAPIEKTISKAKGQPREPQVYTLPPSRDELTKNQVSLTCLVKGFYPSDIVVEWESNGQPENNYKTTPPVLDSDGSFFLYSKLTVDKSRWQQGTVFSCSVMHEALHYHYTQKSLSLSPGK | y |
| C7A_18 (other, EU numbering) CPPCPAPELLGGPSVFLFPPKPKDTLMISRTPEVTCVVEDVSHEDPEVKFNWYVDGVEVHNAKTKPREEQYNSTYRVVSVLTVLHQDWLNGKEYKCKVSNKALPAPIEKTISKAKGQPREPQVYTLPPSRDELTKNQVSLTCLVKGFYPSDIVVEWESNGQPENNYKTTPPVLDSDGSFFLYSKLTVDRSRWQQGTVFSCSVMHEALHYHYTQKSLSLSPGK | y |
| C3A_31 (other, EU numbering) CPPCPAPELLGGPSVFLFPPKPKDTLMISRTPEVTCVVVDVSHEDPEVKFNWYVDGVEVHNAKTKPREEQYNSTYRVVSVLTVLHQDWLDGKEYKCKVSNKALPVPIEKTISKAKGQPREPQVYTLPPSRDELTKNQVSLTCLVKGFYPSDIAVEWESNGQPEKNYKTTPPVLDSGGSFFLYSKLTVDKSRWQQGNVFSCSVMHEALHYHYTQKSLSLSPGK | y |
| C4A_15 (other, EU numbering) CPPCPAPDLLGGPSVFLFPPKPKDTLMISRTPEVTCVVVDVSHEDPEVKFNWYVDGVEVHNAKTKPREEQYNSTYRVVSVLTVLHQDWLDGKEYKCKVSNKALPAPIEKTISKAKGQPREPQVYTLPPSRDELTKNQVSLTCLVKGFYPSDIAVEWESNGQPENNYKTTPPVLDSDGSFFLYSKLTVDKSRWQQGNVFSCSVMHEALHYHYTQKSLSLSPGK | y |
| T4A_26 (other, EU numbering) CPPCPAPELLGGPSVFLFPPKPKDTLMISRTPEVTCVVEDVSHEDPEVKFNWYVDGVEVHNAKTKPREEQYNSTYRVVSVLPVLHQDWLNGKEYKCKVSNKALPAPIEKTISKAKGQPREPQVYTLPPSRDELTKNQVSLTCLVKGFYPSDIVVEWGSNGRPENNYKTTPPVLDSDGSFFLYSKLTVDKSRWQQGNVFSCSVMHEALHNHYTQKSLSLSPGK | n |
| T5A_05 (other, EU numbering) CPPCPAPELLGGPSVFLFPPKPKDTLMISRTPEVTCVVEDVSHGDPEVKFNWYVDGVEVHNAKTKPREEQYNSTYRVVSVLTVLHQDWLNGKEYKCKVSNKALPAPIEKTISKAKGQPREPQVYTLPPSRDELTKNQVSLTCLVKGFYPSDIVVEWESNGQPENNYKTTPPVLDSDGSFFLYSKLTVDKSRWQQGTVFSCSVMHEALHSHYTQKSLSLSPGK | y |
| T3A_22 (other, EU numbering) CPPCPAPELLGGPSVLLFPPKPKDTLMISRTPEVTCVVEDVSHEDPEVKFNWYVDGVEVHNAKTKPREEQYNSTYRVVSVLTVLHQDWLNGKEYKCKVSNKALPAPIEKTISKAKGQPREPQVYTLPPSRDELTKNQVSLTCLVKGFYPSDIVVEWESNGQPENNYKTTPPVLDSDGSFFLYSKLTVDKSRWQQGNVFSCSVMHEALHSHYTQKSLSLSPGK | n |
